# testProtocol: Pharmacokinetic study of female BALB/c nude mice (plasma and tumor)
# Type: in vivo
# recordedConditions: female, BALB/c nude, mouse, oral; plasma, 1 mg/kg intragastric, 4.00 h; read-out: Mean drug concentration
readoutKind: concentration at 4 h (nM)
One number for each entry, in nM.

Sample C=CC(=O)N1CCN2c3c(c(=O)n(-c4c(C)ccnc4C(C)C)c4c(=O)n(-c5c(N)c(Cl)cc(Cl)c5F)c(C(F)(F)F)cc34)OCC[C@H]2C1 ; concentration at 4 h observed: 3.58

----------
# testProtocol: Pharmacokinetic study of female BALB/c nude mice (plasma and tumor)
# Format: in vivo
# recordedConditions: female, BALB/c nude, mouse, oral; tumor, 3 mg/kg intragastric, 4.00 h; read-out: Mean drug concentration
readoutKind: concentration at 4 h (nM)
Numbers only, in nM.

Sample C=CC(=O)N1CCN2c3c(c(=O)n(-c4c(C)ccnc4C(C)C)c4c(=O)n(-c5c(N)c(Cl)cc(Cl)c5F)c(C(F)(F)F)cc34)OCC[C@H]2C1 ; concentration at 4 h observed: 9.78

----------
# testProtocol: Pharmacokinetic study of female BALB/c nude mice (plasma and tumor)
# Assay type: in vivo
# recordedConditions: female, BALB/c nude, mouse, oral; plasma, 3 mg/kg intragastric, 1.00 h; read-out: Mean drug concentration
readoutKind: concentration at 1 h (nM)
Answers are plain numbers, in nM.

Sample C=CC(=O)N1CCN2c3c(c(=O)n(-c4c(C)ccnc4C(C)C)c4c(=O)n(-c5c(N)c(Cl)cc(Cl)c5F)c(C(F)(F)F)cc34)OCC[C@H]2C1 ; concentration at 1 h observed: 157

----------
# testProtocol: Pharmacokinetic study of female BALB/c nude mice (plasma and tumor)
# Format: in vivo
# recordedConditions: female, BALB/c nude, mouse, po; plasma, 10 mg/kg intragastric
readoutKind: AUC(0-t) (µM·h)
Answers are plain numbers, in µM·h.

Sample C=CC(=O)N1CCN2c3c(c(=O)n(-c4c(C)ccnc4C(C)C)c4c(=O)n(-c5c(N)c(Cl)cc(Cl)c5F)c(C(F)(F)F)cc34)OCC[C@H]2C1 [Compound 1D] ; AUC(0-t) observed: 0.84

----------
# testProtocol: Pharmacokinetic study of female BALB/c nude mice (plasma and tumor)
# Type: in vivo
# recordedConditions: female, BALB/c nude, mouse, oral; tumor, 10 mg/kg intragastric, 1.00 h; read-out: Mean drug concentration
readoutKind: concentration at 1 h

Sample C=CC(=O)N1CCN2c3c(c(=O)n(-c4c(C)ccnc4C(C)C)c4c(=O)n(-c5c(N)c(Cl)cc(Cl)c5F)c(C(F)(F)F)cc34)OCC[C@H]2C1 ; concentration at 1 h observed: 203 nM

----------
# testProtocol: Pharmacokinetic study of female BALB/c nude mice (plasma and tumor)
# Assay type: in vivo
# recordedConditions: female, BALB/c nude, mouse, po; plasma, 1 mg/kg intragastric
readoutKind: half-life (h)
Answers are plain numbers, in h.

Sample C=CC(=O)N1CCN2c3c(c(=O)n(-c4c(C)ccnc4C(C)C)c4c(=O)n(-c5c(N)c(Cl)cc(Cl)c5F)c(C(F)(F)F)cc34)OCC[C@H]2C1 [Compound 1D] ; half-life observed: 2.57

----------
# testProtocol: Pharmacokinetic study of female BALB/c nude mice (plasma and tumor)
# Assay type: in vivo
# recordedConditions: female, BALB/c nude, mouse, po; plasma, 3 mg/kg intragastric
# Procedure: This experiment was a pharmacokinetic study of female BALB/c nude mice after oral administration of compound 1D. The experiment was divided into three groups, which were intragastrically administered with 1, 3 and 10 mg/kg of compound 1D, respectively. Animals in each group were divided into two batches, and plasma and tumor tissue samples were collected at different time points after administration. […]
readoutKind: Tmax
Include the unit after the number when you answer.

Sample C=CC(=O)N1CCN2c3c(c(=O)n(-c4c(C)ccnc4C(C)C)c4c(=O)n(-c5c(N)c(Cl)cc(Cl)c5F)c(C(F)(F)F)cc34)OCC[C@H]2C1 ; Tmax observed: 30 min
